- System: K-562 leukemia
- assayOverview: NCI-60 one-dose screen, 48 h
- experimentalConditions: 10 µM unless noted
The panel holds about 83,000 compounds, 20% with a hit somewhere; the sample as a whole holds those more often. Calls of active or inactive are those of the source. Rule for the calls: active = growth percent below 10; inactive = the rest.
Labels: 1 (active), 0 (inactive)

compound: CC(C)(C)c1ccc(C(=O)N/N=C/c2ccc(O)cc2O)cc1
systemUnderTest: K-562 leukemia
classification: 0
//
compound: Cc1cc(O)c(=O)cc2c1C[C@H]1CC(C)(C)/C=C/C[C@]3(C)Oc4cc(=O)c(O)cc(C)c4C[C@H]3C[C@H](O)[C@@]1(C)O2
systemUnderTest: K-562 leukemia
classification: 1
//
compound: CCOc1ncc([N+](=O)[O-])c(OCC)n1
systemUnderTest: K-562 leukemia
classification: 0
//
compound: O=c1ccc2ccc(OCCN3CCCCC3)cc2o1
systemUnderTest: K-562 leukemia
classification: 1
//
compound: O=C(/C=C/C12c3ccccc3C(c3ccccc31)C1C(=O)NC(=O)C12)c1ccc(I)cc1 (centres undefined)
systemUnderTest: K-562 leukemia
classification: 0
//
compound: CC(=O)c1ccc(-n2cc(CN3CCN(c4cc5c(cc4F)c(=O)c(C(=O)O)cn5C4CC4)CC3)nn2)cc1
systemUnderTest: K-562 leukemia
classification: 0
//
compound: O=C(CCCCCCCC(=O)N1CCCCC1)N1CCCCC1
systemUnderTest: K-562 leukemia
classification: 0
//
compound: CC1=C2CC/C(C)=C/CC[C@]3(C)O[C@H]3CC/C(C)=C/[C@H]2OC1
systemUnderTest: K-562 leukemia
classification: 0
//
compound: CCCC(O)Cn1ncc(C(=O)OCC)c1NC(=O)NCc1cccc(C(F)(F)F)c1 (centres undefined)
systemUnderTest: K-562 leukemia
classification: 0
//
compound: COc1cc(-c2cc(-c3ccc(Nc4nc(Nc5ccc(Cl)cc5)nc(Nc5ccc(Cl)cc5)n4)cc3)no2)cc(OC)c1OC
systemUnderTest: K-562 leukemia
classification: 0
//
compound: Oc1nc(NCc2ccccc2)sc1/C=C1\C=Nc2ncccc21
systemUnderTest: K-562 leukemia
classification: 0
//
compound: Cc1cccc(N=Nc2cccc(C)c2)c1
systemUnderTest: K-562 leukemia
classification: 0
//
compound: CCNC(=O)N1CCc2c(Br)c3c(c(OC)c2C1Cc1ccc(OC)cc1)OCO3 (centres undefined)
systemUnderTest: K-562 leukemia
classification: 0
//
compound: Cc1nc2sc(C(=O)Nc3cccc4ccccc34)c(N)c2cc1C(=O)c1ccccc1
systemUnderTest: K-562 leukemia
classification: 1
//
compound: COc1ccc(/C=C(/C(=O)N2CCNCC2)c2cc(OC)c(OC)c(OC)c2)cc1O
systemUnderTest: K-562 leukemia
classification: 0
//
compound: COc1ccc(C/C(C)=C(\c2ccc(Cl)cc2)c2ccc(OCCN3CCCC3)cc2)cc1
systemUnderTest: K-562 leukemia
classification: 0
//
compound: N#Cc1c(-c2ccccc2)nc2c(c(-c3ccc(Cl)cc3)nn2-c2ccccc2)c1-c1ccc([N+](=O)[O-])cc1
systemUnderTest: K-562 leukemia
classification: 0
//
compound: CC(C)(C)CC(C)(C)Nc1c(-c2c(O)c3ccccc3oc2=O)nc2sc3ccccc3n12
systemUnderTest: K-562 leukemia
classification: 0
//
compound: Cc1c(C(C)(C)O)cn2ncnc(Oc3ccc(NC(=O)Nc4ccc(Cl)c(C(F)(F)F)c4)c(F)c3)c12
systemUnderTest: K-562 leukemia
classification: 0
